// provenance: PubChem BioAssay AID488890

# inhibition per record follows
test: growth inhibition of non-replicating M. tuberculosis (AID 488890); conditions: Mycobacterium tuberculosis non-replicating, at 25 µM, stronger effect = higher value;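 further: plate controls were DMSO cells for no effect and high antibiotic wells for full effect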
About 1,300 (0.41%) of roughly 320,000 compounds were called active. Not shown: some 3% with an inconclusive outcome. Only a sample is shown. Measured potencies and affinities stand elsewhere.
Please give a number only; it is taken to be in %.

Worked cases, inhibition given:
Molecule	inhibition [%]
O=C(O)c1ccc(-[n+]2c(-c3ccccc3)cc(-c3ccccc3)cc2-c2ccccc2)cc1	-4.01
O=C(COc1cc2oc(=O)c3c(c2cc1Cl)CCC3)Nc1cccnc1	5.55
Cc1cc(NC(=O)c2c(F)cccc2F)n(-c2nc3ccccc3[nH]2)n1	76.6
COc1cc(CN2CCN(Cc3ccc(SC)cc3)CC2)cc(OC)c1O	-26.9
O=S(=O)(Nc1c(O)ccc2ccccc12)c1ccc(F)cc1	-1.3
OC1CCCN(CC(O)COC(c2ccc(F)cc2)c2ccc(F)cc2)C1 (stereo not drawn)	-5
Cc1cc(Nc2ccccc2)n(-c2ccc(Br)cc2)n1	66.6
CN1CCN(C(=S)NC(=O)/C=C/c2ccccc2Cl)CC1	-10.3

Prompt: inhibition for `COC(=O)C1=CN(Cc2ccc(OC)cc2)C=C(C(=O)OC)C1c1cc(OC)c(OC)c(OC)c1` ?
Completion: 8.79

Prompt: Would you mind telling me what inhibition value was observed for `COc1cccc(OC)c1C(=O)Nc1cc(C)nn1-c1nc2ccccc2[nH]1` ?
Completion: 20.1

Prompt: Consider the molecule `O=S(=O)(Nc1ccc(Cl)c(Cl)c1)N1CCOCC1` and give its measured inhibition.
Completion: -2.78

Prompt: Consider the molecule shown here: `CC(=O)Nc1ccc(NC(=O)CN(C)S(=O)(=O)c2ccc3nc(C)sc3c2)cc1` What is its recorded inhibition?
Completion: 6.18

Prompt: # input molecule: O=C(Nc1ccc(Cl)cc1)OCCn1nnnc1C(c1ccccc1)N1CCOCC1 (stereo not drawn) ; wanted: its inhibition
Completion: 4.68

Prompt: // returns reported inhibition for input `N#CCSc1ncccc1-c1nc2ccccc2[nH]1`
Completion: -0.28

Prompt: For the molecule shown here, Cc1ccc(S(=O)(=O)N2CCCCC2C(=O)Nc2ccc(N(C)C)cc2)cc1 (stereo not drawn) , give the reported inhibition.
Completion: 20

Prompt: Recorded inhibition for `Cc1nn(-c2ccccc2)c(C)c1CN` , please?
Completion: 6.26

Prompt: May I ask what inhibition has been recorded for OC(COC(c1ccc(F)cc1)c1ccc(F)cc1)CN1CCCC1 (stereo not drawn) ?
Completion: 1.01

Prompt: # lookup: inhibition of `O=S(=O)(Nc1ccc2c3c(cccc13)CC2)c1ccc(F)cc1`
Completion: 21.3

Prompt: For `Cc1cc(NC(=O)c2ccccc2)n(-c2nc3ccccc3[nH]2)n1` , what is its reported inhibition?
Completion: 49.6

Prompt: Suppose we examine the molecule `Cc1cc(NC(=O)c2cccs2)n(-c2nc3ccccc3[nH]2)n1` ; what inhibition value has been reported?
Completion: 76.4

Prompt: Query: inhibition; subject: `CCN(CC)S(=O)(=O)c1ccc(NC(=O)c2cccs2)cc1`
Completion: -5.05

Prompt: Need inhibition of `O=C(O)COc1ccc(S(=O)(=O)N2CCCC2)cc1` , thanks.
Completion: -9.2

Prompt: inhibition lookup needed for CSCCC(NC(=O)c1ccco1)C(=O)NC1CCCCCC1 (stereo not drawn) , thanks.
Completion: -8.42
